type: physicochemical; conditions: Log10(concentration in octanol phase/concentration in aqueous phase)
Where a name gives a salt, the structure may show the parent alone.
Consider the following compounds and their measured water-octanol partition coefficient readings.
value_kind: water-octanol partition coefficient

• CCCCC(CC)C(=O)OCC(COC(=O)C(CC)CCCC)OC(=O)C(CC)CCCC (centres unmarked) [triethylhexanoin] = 8.9
• CC12CC3CC(C)(C1)CC(N)(C3)C2 [memantine hydrochloride, reference compound] = 0.3
• CCCc1nc(C)c2c(=O)[nH]c(-c3cc(S(=O)(=O)N4CCN(CC)CC4)ccc3OCC)nn12 [verdenafil hydrochloride hydrate, reference compound] = 0.0
• O.O.O.O.O.O=P([O-])(O)C(O)(Cc1cccnc1)P(=O)(O)O.O=P([O-])(O)C(O)(Cc1cccnc1)P(=O)(O)O.[Na+].[Na+] [risedronate monosodium hemipentahydrate, reference compound] = −5.0
• CC(C)CCCCCCCOC(=O)C(C)(C)C [isodecyl neopentanoate] = 5.9
• CC(C)CCCCCC(=O)OCC(C)(C)COC(=O)CCCCCC(C)C [neopentyl glycol diisononanoate] = 7.2
• CCCCCCCCCCCCCC(=O)OC(C)C [isopropyl myristate] = 7.2
• CCCCCCCCCCCCCC(=O)OCC(CCCCCCCC)CCCCCCCCCC (centres unmarked) [octyldodecyl myristate] = 16.0
• CC(C)CCCCCCOC(=O)CCCCCC(C)C [isononyl isononanoate] = 6.5
• CC(C)CCCCCCCCCCOC(=O)CCCCCC(C)C [isotridecyl isononanoate] = 9.2
• CC(C)CCCC(C)CCCC(C)CCCCC(C)CCCC(C)CCCC(C)C (centres unmarked) [squalane] = 14.7

Origin of the recorded values: patent US10130710B2
